Test system: U251
Test: NCI-60 SRB screen
Conditions: U251, 48 h

- Molecule: "CC(C)C(C(=O)O)N1C(=O)/C(=C/C=C/c2ccc([N+](=O)[O-])o2)SC1=S (centres unmarked) [5b]"
  Study system: "U251"
  TGI / µM: 1.79
- Molecule: "O=C(O)CCN1C(=O)/C(=C/C=C/c2ccc([N+](=O)[O-])o2)SC1=S [12b]"
  Study system: "U251"
  TGI / µM: 2.43
- Molecule: "CCCC(C(=O)O)N1C(=O)/C(=C/C=C/c2ccc([N+](=O)[O-])o2)SC1=S (centres unmarked) [4b]"
  Study system: "U251"
  TGI / µM: 3.37
- Molecule: "O=C(O)C(c1ccccc1)N1C(=O)/C(=C/C=C/c2ccc([N+](=O)[O-])o2)SC1=S (centres unmarked) [9b]"
  Study system: "U251"
  TGI / µM: 16.5
- Molecule: "CCCCC(C(=O)O)N1C(=O)/C(=C/C=C/c2ccc([N+](=O)[O-])o2)SC1=S (centres unmarked) [6b]"
  Study system: "U251"
  TGI / µM: 4.42

* * *

Listed here: items and their measured GI50.
System: HS 578T
Experiment: cells
Conditions: Homo sapiens, 48 h, HS 578T

- Compound: "O=C(O)CCN1C(=O)/C(=C/C=C/c2ccc([N+](=O)[O-])o2)SC1=S [12b]"
  GI50 (nM): 1450
- Compound: "CCCC(C(=O)O)N1C(=O)/C(=C/C=C/c2ccc([N+](=O)[O-])o2)SC1=S (stereo not drawn) [4b]"
  GI50 (nM): 1870
- Compound: "CC(C)C(C(=O)O)N1C(=O)/C(=C/C=C/c2ccc([N+](=O)[O-])o2)SC1=S (stereo not drawn) [5b]"
  GI50 (nM): 2090
- Compound: "O=C(O)CCCCCN1C(=O)/C(=C/C=C/c2ccc([N+](=O)[O-])o2)SC1=S [14b]"
  GI50 (nM): 1440
- Compound: "O=C(O)C(c1ccccc1)N1C(=O)/C(=C/C=C/c2ccc([N+](=O)[O-])o2)SC1=S (stereo not drawn) [9b]"
  GI50 (nM): 4590
- Compound: "CCCCC(C(=O)O)N1C(=O)/C(=C/C=C/c2ccc([N+](=O)[O-])o2)SC1=S (stereo not drawn) [6b]"
  GI50 (nM): 3380

* * *

Here the recorded CC50 is given for each entry.
Test system: NCI-H23
Assay: cells
Conditions: Homo sapiens, NCI-H23, 48 h, read-out: LC50, NCI-H23, 48 h
Metric name: CC50

- Compound: "CCCC(C(=O)O)N1C(=O)/C(=C/C=C/c2ccc([N+](=O)[O-])o2)SC1=S (stereo not shown)"
  Result: "8.57 µM"
- Compound: "O=C(O)C(c1ccccc1)N1C(=O)/C(=C/C=C/c2ccc([N+](=O)[O-])o2)SC1=S (stereo not shown)"
  Result: "66.9 µM"
- Compound: "O=C(O)CCCN1C(=O)/C(=C/C=C/c2ccc([N+](=O)[O-])o2)SC1=S [13b]"
  Result: "6.24 µM"
- Compound: "CCCCC(C(=O)O)N1C(=O)/C(=C/C=C/c2ccc([N+](=O)[O-])o2)SC1=S (stereo not shown)"
  Result: "6.64 µM"
- Compound: "CC(C)C(C(=O)O)N1C(=O)/C(=C/C=C/c2ccc([N+](=O)[O-])o2)SC1=S (stereo not shown)"
  Result: "6.63 µM"
- Compound: "O=C(O)CCN1C(=O)/C(=C/C=C/c2ccc([N+](=O)[O-])o2)SC1=S [12b]"
  Result: "6.7 µM"
- Compound: "O=C(O)CCCCCN1C(=O)/C(=C/C=C/c2ccc([N+](=O)[O-])o2)SC1=S [14b]"
  Result: "6.29 µM"
